- Tested on: L. donovani HU3 strain in mouse peritoneal macrophages
- EXPERIMENT NOTES: Assay for proliferation of Leishmania parasites in mouse peritoneal macrophages
- Format: cell-based, Leishmania donovani
- CONDITION PARAMETERS: Leishmania donovani, Peritoneal macrophage, read-out: L. donavani Macrophage EC50
For each record, check the reported EC50: if it is below 6 µM write t, else write f.

Take a look at these entries with their results.
O=C(Nc1ccc(Cl)c(-c2nc3ncc(C(F)(F)F)cc3[nH]2)c1)c1cncc(F)c1 [Compound 283] : f
Cc1cnc2nc(-c3cc(Nc4ccc(-n5cncn5)nc4)ccc3Cl)[nH]c2c1 [Compound 258] : f
CC(C)OC(=O)Nc1ccc(Cl)c(-c2nc3ncc(-c4ccccc4NC(=O)OC(C)C)cc3n2C(=O)OC(C)C)c1 [Compound 336] : t
[2H]C([2H])([2H])C([2H])([2H])OC(=O)Nc1ccc(Cl)c(-c2nc3ncc(C)cc3[nH]2)c1 [Compound 215] : f

In the following, a different compound is considered.
Req: I'd appreciate it if you could check whether COCCOc1ccc(-c2cnc3nc(-c4cc(NC(=O)c5ccco5)ccc4Cl)[nH]c3c2)c(F)n1 [Compound 52] has EC50 smaller than 6 µM.
Resp: f

Source listed as patent US9233961B2.
